Answer each item with its documented log10 of EC50.
- Tested on: SF-268
- experiment: cells
- Format: functional, cell-based
- assay context: Homo sapiens, SF-268, 72 h
- Description: Cytotoxicity against human SF-268 after 3 days by SRB assay
For clarity, the numbers are log10 values of EC50 expressed in µM.

Observed log10 of EC50 on SF-268 for CN[C@H]1CCc2cc(OC)c(OC)c(OC)c2-c2ccc(OC)c(=O)cc21 [DEMECOLCINE] , please.
0.79

Observed log10 of EC50 on SF-268 for COC1=C2c3ccc(OC)c(=O)cc3[C@H]3CC4(C)N3C24C=C(O)C1=O (some centres undefined) [DEMECOLCINONE] , please.
1.45

Observed log10 of EC50 on SF-268 for COC1=C[C@@H]2C3=C([C@@H]2C1=O)[C@@H](NC(C)=O)CCc1cc(OC)c(OC)c(OC)c13 , please.
0.51

Observed log10 of EC50 on SF-268 for COc1c2c(cc3c1-c1ccc(OC)c(=O)cc1[C@@H](NC(C)=O)CC3)OCO2 , please.
-1.01

Observed log10 of EC50 on SF-268 for COc1ccc2c(c1O)[C@@H](NC(C)=O)CCc1cc(OC)c(OC)c(OC)c1-2 , please.
-0.43

Observed log10 of EC50 on SF-268 for CC[C@@]1(O)C(=O)OCc2c1cc1n(c2=O)Cc2cc3ccccc3nc2-1 [CAMPTOTHECIN] , please.
-1.23

Observed log10 of EC50 on SF-268 for COc1cc2c(c(OC)c1OC)-c1ccc(OC)c(=O)cc1[C@@H](NC(C)=O)CC2 (stereo in doubt; 1) [COLCHICINE] , please.
-1.60

Observed log10 of EC50 on SF-268 for CN[C@H]1CCc2cc(O)c(O)c(OC)c2-c2ccc(OC)c(=O)cc21 , please.
1.90

Observed log10 of EC50 on SF-268 for CN[C@H]1CCc2cc(O)c(OC)c(OC)c2-c2ccc(OC)c(=O)cc21 , please.
0.51

###

Answer each item with its documented log10 of EC50.
- Tested on: NCI-H460
- experiment: Cytotoxicity against human H460 after 3 days by SRB assay
- Assay type: functional, cell-based
- assay context: NCI-H460, 72 h
For clarity, the numbers are log10 values of EC50 expressed in µM.

Observed log10 of EC50 on NCI-H460 for COc1cc2c(c(OC)c1OC)-c1ccc(OC)c(=O)cc1[C@@H](NC(C)=O)CC2 (stereo in doubt; 1) , please.
-1.52

Observed log10 of EC50 on NCI-H460 for COc1ccc2c(c1O)[C@@H](NC(C)=O)CCc1cc(OC)c(OC)c(OC)c1-2 , please.
-0.59

Observed log10 of EC50 on NCI-H460 for CC[C@@]1(O)C(=O)OCc2c1cc1n(c2=O)Cc2cc3ccccc3nc2-1 , please.
-2.16

Observed log10 of EC50 on NCI-H460 for CN[C@H]1CCc2cc(OC)c(OC)c(OC)c2-c2ccc(OC)c(=O)cc21 , please.
-0.16

Observed log10 of EC50 on NCI-H460 for COC1=C2c3ccc(OC)c(=O)cc3[C@H]3CC4(C)N3C24C=C(O)C1=O (some centres undefined) , please.
1.50

Observed log10 of EC50 on NCI-H460 for CN[C@H]1CCc2cc(O)c(O)c(OC)c2-c2ccc(OC)c(=O)cc21 , please.
2.33

Observed log10 of EC50 on NCI-H460 for CN[C@H]1CCc2cc(O)c(OC)c(OC)c2-c2ccc(OC)c(=O)cc21 , please.
0.04

Observed log10 of EC50 on NCI-H460 for COc1c2c(cc3c1-c1ccc(OC)c(=O)cc1[C@@H](NC(C)=O)CC3)OCO2 , please.
-1.23

Observed log10 of EC50 on NCI-H460 for COC1=C[C@@H]2C3=C([C@@H]2C1=O)[C@@H](NC(C)=O)CCc1cc(OC)c(OC)c(OC)c13 , please.
0.32

Value source: ChEMBL document CHEMBL1142575
